- tested.on: CD28 (Homo sapiens, UniProt P10747)
- test.summary: Flow binding to Jurkat/IL2 reporter cells (CD28)
- Parameters: host or cells: Jurkat cells expressing an IL-2-luciferase reporter
- assay.setup: Table E19; Jurkats (CD28); 33.3 nM
- Experimental: Binding of selected immunomodulatory fusion proteins to cognate binding partners was assessed. […] Cells were sorted in a Bio-Rad S3 Cell Sorter (Bio-Rad Corp., USA) to >98% purity. […] For staining and analysis by flow cytometry, 100,000 cells of appropriate transfected cells were plated in 96-well round bottom plates. […] Cells were then washed twice with 150 μL/well stain buffer, fixed in 2% formaldehyde/PBS, and analyzed on Intellicyt flow cytometer (Intellicyt Corp., USA). […]
endpoint.name: CD28 MFI at 33.3 nM
Give bare numbers.

Worked cases, CD28 MFI at 33.3 nM given:
[
  {
    "molecule": "M47L/L85Q (protein) VIHVTKEVKEVATLSCGHNVSVEELAQTRIYWQKEKKMVLTMMSGDLNIWPEYKNRTIFDITNNLSIVILALRPSDEGTYECVVQKYEKDAFKREHLAEVTLSVKAD",
    "CD28 MFI at 33.3 nM": 88.1
  },
  {
    "molecule": "M47V/N48K/V68M (protein) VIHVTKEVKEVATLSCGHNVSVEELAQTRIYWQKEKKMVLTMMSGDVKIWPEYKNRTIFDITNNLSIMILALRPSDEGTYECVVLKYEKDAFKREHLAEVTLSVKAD",
    "CD28 MFI at 33.3 nM": 641
  },
  {
    "molecule": "E35D/D46V/M47V/V68M/L85Q (protein) VIHVTKEVKEVATLSCGHNVSVEELAQTRIYWQKDKKMVLTMMSGVVNIWPEYKNRTIFDITNNLSIMILALRPSDEGTYECVVQKYEKDAFKREHLAEVTLSVKAD",
    "CD28 MFI at 33.3 nM": 331
  }
]

Here's the next entry for you.
For the molecule M47V (protein) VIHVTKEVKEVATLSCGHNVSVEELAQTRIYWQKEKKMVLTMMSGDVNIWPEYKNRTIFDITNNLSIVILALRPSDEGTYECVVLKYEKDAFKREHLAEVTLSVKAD , give its measured CD28 MFI at 33.3 nM value. 68.7
